# PBM binding z-score per entry
- System: LXRa:RXRa (NR concentration 270 nM, RXRa partner concentration 90 nM)
- protocol notes: PBM binding z-score (relative to random genomic background probes); higher = stronger binding; sequences stand for … in GC…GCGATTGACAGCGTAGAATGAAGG

seq string	PBM binding z-score
GCTCGCAGGACAAGGTCAGAGCTTTGTCCGTAGA	1.47
CGAGCTAGGTCATTGACAGGACAGTGAATAGTAA	3.11
CCTCGGAGGACAGAAAGTCAGAGCTGTCCGCTTT	-0.464
ATCGAAAGGTCGTGATGTGAGTATACAGAAAGGC	3.48
TCTATTAGTTGATTAGGACAACCGAAACAGCGGA	0.808
CCTCGGAGGACAGAAGGTCAGACCTGTCCGCTTT	1.56
ATCTCTAGGTAGGACTCAGTTCAGTGAAGAACGC	0.636
CCTTGCAGGCCAATCTGGGTCACTCAAGGCTTGA	1.37
CTCGAAAGGACGTGCTCAGGTGAGTATACCAAAC	-0.223
TTACCAAGGTGAAAGGGCGTTGATGCACGCCTTG	0.702
TCTTCTAGATCAACAGGAGGTTAAGAAAGATCGA	1.25
TCACCAAGGTGAAGGTCGTTGATCCCTCTGTAGA	2.24
CCTACTGGGCCAAGGGCATTGATCAGTCAAAGCA	-0.572
CGAACTAGGACAAGGACAGTGAATCTCCGCACGC	-0.241
GGAACGAGCGCAAGTTGATAGCAGAGTTTGATGG	-0.851
CGAACTGGGTCATCCAGGACAGTGAATACATTGA	1.9
CCTGCTAGGTCAATGGGCAGCTAAAGCAGCTCGC	1.62
ATCTCTAGGTAAAGTTCAGTGAGAGATCGATAGA	1.82
GGGACGAGGGCAAAGTTGATAGCATCTGTCGACG	1.11
ATATGTCGGTTATCGGGTCATTCAGTTTGCGCAT	2.52
CCTATTAGTTGACCATAAGGGGAACCGAAGCTCG	0.366
TAGCCTACGTCATTCAGGGGCCAGTATAGAAAGC	-0.447
GGAACGAGGGCATTCGAGTTTATAGCATGGCGAT	4.61
ATCACTAGGTAAGACTCAGTTCAGTGAAGAACGC	0.00987
ATATATAGGTTAAGGGTCATTCAGGTTGGTTCGC	5.29
CGAACTAGGTCAGTACAGGACAGTGAAGGATGAT	1.83
GGAACGAGGGCATTCGATTTGATAGCATGGCGAT	0.589
TGTCTAAGTTCAAAGGTAACGTAAGTATCCACAC	5.21
TAGGCTAGGTCATGGGCCAGTATACCACGCGAAC	3.13
CCGACTGGGACAAGGTTACCATAACGCACAGCCA	0.604
ATCTCAAGGTAACCAAGTTCAGTGAATGCCGAAC	1.12
TGTCAAAGTTCAAAGGTAACGTTAGTATCCACAC	6.46
CCGACTGGGGAAGAAAGGTTACCATACCATCCGG	0.579
CGAACTAGGTCATTGACAGGACAGTGAATAGTAA	2.89
TCAGACAGGTGAAGGTCACTCAGGTACGCAGTCG	3.62
CCGACTGGGGCAGAAATGTTACCATACCATCCGG	-0.371
GGCACGAGGGCAAAGTTGATAGCATCTGTCGACG	1.01
ACTATTAGTTGAGACGAGGACAACCGATAGGTTG	0.148
ATACCAAGGTGATCGTGAGGTCGTTGCTACTAAC	1.3
TCGAGTAGGTTGGGGGCATTCAGAATGGCGTCGA	1.94
CCTATTAGTTGGCCATAAGGGCAACCGAAGCTCG	0.0422
CAAACTAGGTCACGAAAGGTCAAAGGCGAATGAC	8.23
CCTGCTAGGTCAATGGACAGCTAAAGCAGCTCGC	2.11
TCTCGTAGGACACGAAGGTCAGAGCTTTCCAGAG	0.907
GCTCACGGGTCAAAGGTTATAGCATGAATAGAAT	5.69
CGTCCAAGGTCAGCAGGTCAGTGACAGCGACGTG	3.99
CAAACTAGGTCACGAAAGGTCAAACTCGAATGAC	8.32
TCTCGGAGCACACGAAAGGTCAGAGCTCGACATC	3.07
TTACCAAGGTGAAAGGTCGTTAATGCACGCCTTG	2.77
ATCCCTAGGTAACAAGTTCAGTGAAAGAGAGGAC	0.833
CCTCGGAGGACAACAGGAGGTCACAGCTGCCAGA	3.93
